Subject of test: Melanocortin receptor 5 (Mus musculus)
Sequence (P41149 whole entry): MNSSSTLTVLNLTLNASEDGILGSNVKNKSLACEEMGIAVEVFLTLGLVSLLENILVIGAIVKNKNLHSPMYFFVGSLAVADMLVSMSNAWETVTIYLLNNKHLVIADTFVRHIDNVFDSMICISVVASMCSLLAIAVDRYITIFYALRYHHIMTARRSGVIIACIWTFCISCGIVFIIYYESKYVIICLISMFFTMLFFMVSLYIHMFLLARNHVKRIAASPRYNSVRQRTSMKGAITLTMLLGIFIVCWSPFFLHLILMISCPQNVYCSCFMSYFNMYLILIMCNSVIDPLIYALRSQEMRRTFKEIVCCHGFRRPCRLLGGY
Measurement notes: Displacement of [125I]NDP-MSH from mouse melanocortin receptor-5 expressed in 293 HEK cells
pIC50: −log10 of the molar value. Where a SMILES comes first, the peptide text is derived from it. [ ]: non-standard residue; d: D form. Nphe = O=C(O)CNCc1ccccc1; NBuGly = CCCCNCC(=O)O
Measured property: pIC50

A. CCCC[C@H](NC(C)=O)C(=O)NCC(=O)N[C@@H](CCCCN)C(=O)N[C@H](Cc1ccccc1)C(=O)N(CCCNC(=N)N)CC(=O)N(CCc1c[nH]c2ccccc12)CC(=O)NCC(N)=O
B. CCCCN(CC(=O)NCC(=O)N[C@@H](CCCCN)C(=O)N[C@H](Cc1ccccc1)C(=O)N(CCCN=C(N)N)CC(=O)N(CC(=O)NCC(N)=O)Cc1c[nH]c2ccccc12)C(C)=O
Sorting by pIC50 in descending order, would A or B appear first? Lab note: record the label of whichever item you select.
A

A. CCCCN(CC(=O)NCC(=O)N[C@@H](CCCCN)C(=O)N(CC(=O)N[C@@H](CCCN=C(N)N)C(=O)N[C@@H](Cc1c[nH]c2ccccc12)C(=O)NCC(N)=O)Cc1ccccc1)C(C)=O (Ac-[NBuGly]GK[Nphe]RWG-NH2)
B. CCCC[C@H](NC(C)=O)C(=O)NCC(=O)N(CCCCN)CC(=O)NC(Cc1ccccc1)C(=O)N(CCCNC(=N)N)CC(=O)N(CC(=O)NCC(N)=O)Cc1c[nH]c2ccccc12 (single isomer, unassigned)
C. CCCC[C@H](NC(C)=O)C(=O)NCC(=O)N(CCCCN)CC(=O)N[C@H](Cc1ccccc1)C(=O)N[C@@H](CCCN=C(N)N)C(=O)N(CC(=O)NCC(N)=O)Cc1c[nH]c2ccccc12
Arrange these 3 compounds in increasing order of pIC50. Write the labels, ordered according to the request.
A, B, C
